# target entity: CCR2 receptor (Homo sapiens, UniProt P41597)
# Sequence (P41597 whole entry): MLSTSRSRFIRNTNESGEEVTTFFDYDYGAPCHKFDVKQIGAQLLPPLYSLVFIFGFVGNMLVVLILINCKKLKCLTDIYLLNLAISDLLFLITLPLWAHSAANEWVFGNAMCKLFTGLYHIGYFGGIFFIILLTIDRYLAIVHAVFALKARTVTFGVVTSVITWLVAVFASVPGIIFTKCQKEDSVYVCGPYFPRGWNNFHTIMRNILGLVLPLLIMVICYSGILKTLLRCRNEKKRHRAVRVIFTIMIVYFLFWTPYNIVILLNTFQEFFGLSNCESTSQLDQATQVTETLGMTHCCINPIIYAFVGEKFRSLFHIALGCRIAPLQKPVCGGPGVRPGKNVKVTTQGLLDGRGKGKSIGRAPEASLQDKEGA
# assay summary: Calcium activity assay on FLIPR Tetra in HEK-Gqi5 cells stably expressing CCR2
measured metric: pIC50
The quantity pIC50 is defined as the negative base-10 logarithm of the molar concentration.

For CCR2 receptor (Homo sapiens, UniProt P41597), provide pIC50 of N#Cc1ccc(NS(=O)(=O)c2cc3ccccc3o2)c([S+]([O-])Cc2ccccc2)c1 (stereo not drawn) please.
5.99

For CCR2 receptor (Homo sapiens, UniProt P41597), provide pIC50 of `O=S(=O)(Nc1cc(Cl)ccc1SCc1ccccc1)c1ccc(Cl)c(C(F)(F)F)c1` please.
5.89

For CCR2 receptor (Homo sapiens, UniProt P41597), provide pIC50 of `CC(=O)Nc1cccc(CS(=O)(=O)c2ccc(Cl)cc2NS(=O)(=O)c2cc3ccccc3o2)c1` please.
6.07

----------
# target entity: CCR2 receptor (Homo sapiens, UniProt P41597)
# Construct: expressed in transfected cells
# assay summary: Calcium activity assay on FLIPR Tetra in HEK-Gqi5 cells stably expressing CCR2
# Type: cell-based
measured metric: CCR2 % ANTAGONISM (%)
Give the value, in units of %, as a plain number.

CCR2 % ANTAGONISM for O=C(O)c1ccccc1C[S+]([O-])c1ccc(F)cc1NS(=O)(=O)c1cc2ccccc2o1 (centres unmarked) ?
92

CCR2 % ANTAGONISM for CS(=O)(=O)Nc1cccc(C[S+]([O-])c2ccc(Cl)cc2NS(=O)(=O)c2cc3ccccc3o2)c1 (centres unmarked) ?
77

CCR2 % ANTAGONISM for `O=C(O)c1ccc(CSc2ccc(Cl)cc2NS(=O)(=O)c2ccc(Cl)c(C(F)(F)F)c2)cc1` ?
102

CCR2 % ANTAGONISM for `O=C(O)c1cccc(CSc2ccc(Cl)cc2NS(=O)(=O)c2ccc(Cl)c(C(F)(F)F)c2)c1` ?
102

CCR2 % ANTAGONISM for CC(C)(C)OC(=O)CNC(=O)c1ccc(C[S+]([O-])c2ccc(Cl)cc2NS(=O)(=O)c2ccc(Cl)c(C(F)(F)F)c2)cc1 (centres unmarked) ?
93

All values here come from patent US8822530B2.
